# tested target: BbIMPDH (Borreliella burgdorferi)
# assay explanation: IMPDH inhibition, B. burgdorferi enzyme
# Format: biochemical
# assay setup: read-out: Ki ADP; BbIMPDH
property measured: Ki (mM)
// return numeric value only (unit: mM, not printed)

// Ki lookup, key: `Nc1ncnc2c1ncn2[C@@H]1O[C@H](COP(=O)(O)OP(=O)(O)O)[C@@H](O)[C@H]1O` 7.4

###

# tested target: BbIMPDH (Borreliella burgdorferi, UniProt P49058)
# Sequence (P49058 whole entry): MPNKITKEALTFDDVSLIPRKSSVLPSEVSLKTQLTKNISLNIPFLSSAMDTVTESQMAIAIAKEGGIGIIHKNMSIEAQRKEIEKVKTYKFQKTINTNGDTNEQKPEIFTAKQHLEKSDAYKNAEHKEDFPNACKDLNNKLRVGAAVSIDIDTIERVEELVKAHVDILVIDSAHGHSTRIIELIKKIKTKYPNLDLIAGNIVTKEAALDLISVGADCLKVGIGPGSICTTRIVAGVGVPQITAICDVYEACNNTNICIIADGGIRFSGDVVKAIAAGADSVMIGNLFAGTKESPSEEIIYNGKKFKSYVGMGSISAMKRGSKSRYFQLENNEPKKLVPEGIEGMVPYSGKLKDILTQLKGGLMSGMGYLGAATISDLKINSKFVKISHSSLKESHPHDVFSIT
# assay explanation: IMPDH inhibition, B. burgdorferi enzyme
# Format: biochemical
property measured: Ki (µM)
// return numeric value only (unit: µM, not printed)

// Ki lookup, key: `NC(=O)c1csc([C@@H]2O[C@H](CO)[C@@H](O)[C@H]2O)n1` 1100

Where do the numbers come from? From paper PMC2991053.
